The measured values listed here are drawn from PubChem BioAssay (NCI).

Attribute: TGI
System: SK-MEL-5 melanoma
experiment: NCI tumour cell line growth inhibition, 48 h

>  <compound>
CC1(C)OCC2OC3([C@@H]4OC(C)(C)O[C@H]4CO)OC(C)(C)OC3C2O1 (some centres not stated)

>  <TGI>
> 100 µM

$$$$
>  <compound>
CCCCCCCCCCCCCCCCCC1=NCCN1C(=O)OCCO

>  <TGI>
10.3 µM

$$$$
>  <compound>
Cc1ccc(-c2cc(-c3ccccc3)c(C#N)c(=O)n2C2OC(CO)C(O)C(O)C2O)cc1 (configuration not stated)

>  <TGI>
> 100 µM

$$$$
>  <compound>
CCn1c(-c2nonc2N)nc2c(C#CC(C)(C)O)nc(OCCNC)cc21

>  <TGI>
12 µM

$$$$
>  <compound>
CO[C@H]1SC[C@H](OC(C)=O)[C@H](OC(C)=O)[C@H]1OC(C)=O

>  <TGI>
> 100 µM

$$$$
>  <compound>
O=C1C=CC(=O)c2c(O)c(N3CCC[C@H]3CO)c(Cl)c(O)c21

>  <TGI>
3.11 µM

$$$$
>  <compound>
COc1cc(C(c2c(O)c3ccccc3oc2=O)c2c(O)c3ccccc3oc2=O)cc(Br)c1O

>  <TGI>
29.8 µM

$$$$
>  <compound>
COC(=O)[C@]12CCC(C)[C@H](C)[C@H]1C1=CCC3[C@@]4(C)CC[C@H](OC(C)=O)C(C)(C)C4CC[C@@]3(C)C1(C)C(O)C2 (some centres not stated)

>  <TGI>
> 100 µM

$$$$
>  <compound>
CC1C(=O)OCC2=CCN3CCC(OC(=O)C(C)C1(C)O)C23 (configuration not stated)

>  <TGI>
> 100 µM

$$$$
>  <compound>
CCC1=NC(CO)[C@H](c2ccccc2)O1 (some centres not stated)

>  <TGI>
> 100 µM

$$$$
>  <compound>
CCOC(=O)/C=C1\CCCC12OCCO2

>  <TGI>
> 100 µM

$$$$
>  <compound>
CN(C)CC1CCC/C(=C\c2ccc(OC(=O)c3ccc(Cl)cc3)cc2)C1=O (configuration not stated)

>  <TGI>
12.1 µM

$$$$
>  <compound>
Cc1ccccc1C1=C(C(=O)Nc2ccc(Cl)c(Cl)c2)NC(=S)NC1N (configuration not stated)

>  <TGI>
> 100 µM

$$$$
>  <compound>
O=c1cc(-c2ccncc2)[nH]c2cc3c(cc12)OCO3

>  <TGI>
> 100 µM

$$$$
>  <compound>
CCC1=C(C(C)=O)[C@@H]2CCCCC[C@@H](C(=O)OC)C2C1=O (some centres not stated)

>  <TGI>
> 100 µM

$$$$
>  <compound>
O=P(O)(O)c1ccccc1Oc1ccccc1

>  <TGI>
> 100 µM

$$$$
>  <compound>
C=C(C)OCOCCOC

>  <TGI>
> 100 µM

$$$$
>  <compound>
Cn1c(=O)c2c(nc3n(Cc4ccccc4)c(=O)c(NCCCBr)cn23)n(C)c1=O

>  <TGI>
> 100 µM

$$$$
>  <compound>
COC(=O)C1(CCCCCBr)CCCCCCCCCCC1=O (configuration not stated)

>  <TGI>
35.1 µM

$$$$
>  <compound>
NC(=O)c1csc(C2(O)COC(CO)C2O)n1 (configuration not stated)

>  <TGI>
> 100 µM

$$$$
>  <compound>
NCCCCNc1ccc2c(=O)[nH][nH]c(=O)c2c1

>  <TGI>
> 100 µM

$$$$
>  <compound>
CN(C)/N=C(/c1nc2ccc(Cl)cc2[nH]c1=O)C(O)c1ccc(C(O)/C(=N\N(C)C)c2nc3ccc(Cl)cc3[nH]c2=O)cc1 (configuration not stated)

>  <TGI>
> 100 µM

$$$$
